These measurements were taken from ChEMBL document CHEMBL1201862.

# experimental-target: UniProtKB Q12809
# Sequence (Q12809 whole entry): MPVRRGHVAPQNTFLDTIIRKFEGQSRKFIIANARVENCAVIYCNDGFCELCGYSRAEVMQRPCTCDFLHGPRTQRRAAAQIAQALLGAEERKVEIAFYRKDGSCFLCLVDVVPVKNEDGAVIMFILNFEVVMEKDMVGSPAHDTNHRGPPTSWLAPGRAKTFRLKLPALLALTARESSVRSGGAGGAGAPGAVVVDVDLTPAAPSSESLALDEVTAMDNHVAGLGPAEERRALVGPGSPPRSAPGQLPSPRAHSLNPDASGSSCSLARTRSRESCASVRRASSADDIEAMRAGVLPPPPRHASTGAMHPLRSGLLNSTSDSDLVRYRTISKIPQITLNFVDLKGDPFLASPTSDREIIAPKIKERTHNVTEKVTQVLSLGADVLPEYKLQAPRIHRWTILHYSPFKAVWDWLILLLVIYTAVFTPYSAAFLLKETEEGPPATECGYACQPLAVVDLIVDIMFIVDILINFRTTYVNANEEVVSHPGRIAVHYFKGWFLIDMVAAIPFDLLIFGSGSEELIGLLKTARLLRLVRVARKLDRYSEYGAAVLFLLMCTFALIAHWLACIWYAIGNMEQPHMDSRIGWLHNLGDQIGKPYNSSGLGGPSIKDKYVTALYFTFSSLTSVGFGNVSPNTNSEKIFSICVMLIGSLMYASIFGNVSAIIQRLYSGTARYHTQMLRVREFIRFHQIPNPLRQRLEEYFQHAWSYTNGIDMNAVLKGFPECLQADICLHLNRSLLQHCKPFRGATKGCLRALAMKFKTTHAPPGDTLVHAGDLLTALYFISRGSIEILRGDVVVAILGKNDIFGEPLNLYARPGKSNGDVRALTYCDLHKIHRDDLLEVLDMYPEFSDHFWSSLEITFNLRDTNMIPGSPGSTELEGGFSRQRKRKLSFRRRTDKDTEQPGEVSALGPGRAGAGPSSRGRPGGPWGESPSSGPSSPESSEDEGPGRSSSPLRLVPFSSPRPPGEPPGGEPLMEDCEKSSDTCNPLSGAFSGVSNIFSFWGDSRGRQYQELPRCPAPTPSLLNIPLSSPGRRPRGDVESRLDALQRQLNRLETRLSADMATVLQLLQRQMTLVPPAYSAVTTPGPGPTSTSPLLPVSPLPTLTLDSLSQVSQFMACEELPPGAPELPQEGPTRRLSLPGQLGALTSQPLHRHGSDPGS
# condition: Potency
Would you mind telling me the reported AC50 of each entry?

Known AC50 results, listed for orientation:
C#C[C@]1(O)CC[C@H]2[C@@H]3CCC4=Cc5oncc5CC4(C)[C@H]3CCC21C (stereo partly drawn) : 1.58 µM (inconclusive)
CCn1cnc2c(Nc3cccc(Cl)c3)nc(N[C@@H]3CCCC[C@@H]3N)nc21 : 17.8 µM (inconclusive)

Turning now to a further molecule:
Qu. Consider the molecule C[C@H](N)CN1CCc2ccc(Br)cc21 and give its recorded AC50.
Ans. 20 µM (inconclusive)

----------
Would you mind telling me the reported IC50 of each entry?
# experimental-target: Sentrin-specific protease 7 (Homo sapiens);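 also: Luminescence-based dose-response confirmation of ultra-high-throughput screening hits, measuring inhibition of SENP7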
# Sequence (Q9BQF6 whole entry): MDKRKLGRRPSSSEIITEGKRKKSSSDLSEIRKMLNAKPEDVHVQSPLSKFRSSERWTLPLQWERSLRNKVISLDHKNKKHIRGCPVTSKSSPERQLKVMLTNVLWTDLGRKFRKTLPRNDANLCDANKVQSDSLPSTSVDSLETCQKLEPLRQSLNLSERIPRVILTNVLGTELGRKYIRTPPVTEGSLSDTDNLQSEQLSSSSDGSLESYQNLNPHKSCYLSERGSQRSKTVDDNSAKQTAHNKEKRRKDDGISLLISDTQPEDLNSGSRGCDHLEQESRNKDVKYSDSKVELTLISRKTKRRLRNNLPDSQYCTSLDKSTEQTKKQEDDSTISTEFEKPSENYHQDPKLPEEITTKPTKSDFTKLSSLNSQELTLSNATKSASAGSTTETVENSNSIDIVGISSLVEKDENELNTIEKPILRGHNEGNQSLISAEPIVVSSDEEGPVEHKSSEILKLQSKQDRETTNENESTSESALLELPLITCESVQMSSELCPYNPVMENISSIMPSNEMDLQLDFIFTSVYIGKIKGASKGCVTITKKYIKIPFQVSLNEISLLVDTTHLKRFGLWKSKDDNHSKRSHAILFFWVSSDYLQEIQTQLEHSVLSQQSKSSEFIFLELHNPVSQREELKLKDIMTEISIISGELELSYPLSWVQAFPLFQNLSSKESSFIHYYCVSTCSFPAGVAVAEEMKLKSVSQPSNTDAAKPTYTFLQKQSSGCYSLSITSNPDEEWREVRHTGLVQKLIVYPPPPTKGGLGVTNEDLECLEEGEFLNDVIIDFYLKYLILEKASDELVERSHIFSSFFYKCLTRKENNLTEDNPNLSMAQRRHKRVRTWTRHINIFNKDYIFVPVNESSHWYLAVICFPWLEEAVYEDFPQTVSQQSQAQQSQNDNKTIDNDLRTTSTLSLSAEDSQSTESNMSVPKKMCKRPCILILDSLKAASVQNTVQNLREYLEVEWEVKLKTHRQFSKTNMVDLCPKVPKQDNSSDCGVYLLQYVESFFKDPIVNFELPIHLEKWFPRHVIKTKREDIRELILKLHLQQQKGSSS
# Assay type: functional
Activity calls are given as the source filed them.

Known IC50 results, listed for orientation:
Brc1ccc(NN=Nc2ccccc2)cc1 : 4.66 µM (active)
O=C(Nc1ccccc1)c1ccc(-c2ccccc2Cl)o1 : 4.47 µM (active)
O=C(OCC(=O)N1CCC(c2ccccc2)=N1)c1ccc([N+](=O)[O-])s1 : 18.9 µM (active)

Give one value of IC50 per listed compound.
1. COc1ccc2c(c1)CCC(/C=N/c1ccc3c(c1)OCO3)=C2O
2. O=C(c1ccccc1)c1coc2c1C(=O)c1ccccc1C2=O

Ans.
1: 13.1 µM (active); 2: 12.7 µM (active)

----------
# experimental-target: Short transient receptor potential channel 4 (Mus musculus, UniProt Q9QUQ5)
# Sequence (Q9QUQ5 whole entry): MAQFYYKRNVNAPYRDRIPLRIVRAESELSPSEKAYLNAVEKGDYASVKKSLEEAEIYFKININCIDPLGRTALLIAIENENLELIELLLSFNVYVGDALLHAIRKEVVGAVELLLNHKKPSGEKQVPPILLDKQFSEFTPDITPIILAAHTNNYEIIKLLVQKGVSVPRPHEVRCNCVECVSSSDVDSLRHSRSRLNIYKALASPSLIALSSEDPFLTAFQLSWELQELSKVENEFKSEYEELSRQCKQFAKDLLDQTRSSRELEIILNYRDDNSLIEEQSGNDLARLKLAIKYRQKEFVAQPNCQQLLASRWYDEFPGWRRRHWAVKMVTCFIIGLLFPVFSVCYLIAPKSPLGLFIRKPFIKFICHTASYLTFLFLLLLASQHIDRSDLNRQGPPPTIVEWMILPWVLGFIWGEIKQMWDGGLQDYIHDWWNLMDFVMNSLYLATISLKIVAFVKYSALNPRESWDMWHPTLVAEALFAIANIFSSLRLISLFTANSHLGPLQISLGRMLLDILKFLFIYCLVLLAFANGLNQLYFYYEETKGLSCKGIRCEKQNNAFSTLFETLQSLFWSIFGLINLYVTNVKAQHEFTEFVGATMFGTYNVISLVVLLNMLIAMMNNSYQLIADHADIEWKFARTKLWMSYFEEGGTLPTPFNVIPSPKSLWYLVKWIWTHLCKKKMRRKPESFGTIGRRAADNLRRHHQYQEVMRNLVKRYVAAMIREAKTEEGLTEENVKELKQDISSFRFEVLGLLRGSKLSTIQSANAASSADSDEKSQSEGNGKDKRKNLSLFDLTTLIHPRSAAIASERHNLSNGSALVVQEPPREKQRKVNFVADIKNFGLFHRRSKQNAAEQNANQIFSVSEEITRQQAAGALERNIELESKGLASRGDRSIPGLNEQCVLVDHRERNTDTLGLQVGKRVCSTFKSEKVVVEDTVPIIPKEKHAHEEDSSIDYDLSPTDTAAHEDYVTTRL
# measurement-protocol: block of DAMGO-driven TRPC4 calcium entry – cell-based, HEK293 TRPC4/mu-opioid, Fluo-4 calcium, dose response (AID 434942);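 also: potency of inhibitors blocking the TRPC4 calcium response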
# Assay type: functional
Activity calls are given as the source filed them.
Would you mind telling me the reported EC50 of each entry?

Known EC50 results, listed for orientation:
CN1CCN(c2nc(-c3cccnc3)nc3scc(-c4ccccc4)c23)CC1 : 11.9 µM (active)
Cc1ccc2c(nc3s/c(=C\c4ccc(-c5ccccc5C(=O)O)o4)c(=O)n32)c1C : 5.31 µM (active)
OCCNCc1cc(Br)ccc1OCc1ccc(Cl)cc1Cl : 3.35 µM (active)
O=C1COc2ccc(N3C(=O)C=CC3=O)cc2N1 : 6.68 µM (active)

Turning now to a further molecule:
Qu. Consider the molecule COc1cccc(N2CC(=O)C(c3nc(O)c4ccccc4n3)=C2N)c1 and give its recorded EC50.
Ans. 0.133 µM (active)

----------
# experimental-target: UniProtKB P03070
# Sequence (P03070 whole entry): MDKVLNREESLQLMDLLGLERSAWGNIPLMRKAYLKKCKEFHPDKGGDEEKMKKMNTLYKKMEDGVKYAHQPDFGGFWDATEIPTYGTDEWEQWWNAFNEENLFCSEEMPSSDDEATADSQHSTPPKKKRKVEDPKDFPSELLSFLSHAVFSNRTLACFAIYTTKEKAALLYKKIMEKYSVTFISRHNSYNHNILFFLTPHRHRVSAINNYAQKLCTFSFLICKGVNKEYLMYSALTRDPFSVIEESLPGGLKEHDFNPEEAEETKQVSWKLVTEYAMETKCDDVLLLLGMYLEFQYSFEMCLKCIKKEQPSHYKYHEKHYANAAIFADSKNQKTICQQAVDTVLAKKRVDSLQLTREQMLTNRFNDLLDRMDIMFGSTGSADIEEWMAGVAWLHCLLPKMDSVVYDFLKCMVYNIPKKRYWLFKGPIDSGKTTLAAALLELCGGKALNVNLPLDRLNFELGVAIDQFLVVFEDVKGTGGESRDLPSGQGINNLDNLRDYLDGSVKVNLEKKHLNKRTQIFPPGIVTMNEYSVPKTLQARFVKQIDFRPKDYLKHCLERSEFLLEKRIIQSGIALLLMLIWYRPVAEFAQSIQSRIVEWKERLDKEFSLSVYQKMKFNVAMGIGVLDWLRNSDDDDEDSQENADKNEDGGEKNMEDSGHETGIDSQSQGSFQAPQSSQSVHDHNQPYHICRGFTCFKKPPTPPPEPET
# Type: functional, Betapolyomavirus macacae
Calls of active or inactive are those of the source.
measure: IC50

Give one value of IC50 per listed compound.
1. O=[N+]([O-])c1c(NCCO)cc(Sc2nc3ccccc3s2)c2nonc12
2. CN1CCN(S(=O)(=O)c2ccc(N3CCN(c4ccc(O)cc4)CC3)c([N+](=O)[O-])c2)CC1
3. CC(=O)O[C@H]1C[C@@]2(C)[C@@H](C[C@@H](O)[C@H]3[C@@]4(C)CC[C@@H](O)[C@@H](C)C4CC[C@@]32C)/C1=C(\CCC=C(C)C)C(=O)O (stereo not given in full)
4. Cc1nnc(O)nc1Nc1ccc(O)cc1
5. O=C1NC(=O)N(c2ccccc2)C(=O)/C1=C\c1ccc([N+](=O)[O-])s1

Ans.
1. 21.2 µM (active)
2. 8.6 µM (active)
3. 24.7 µM (active)
4. 4.52 µM (active)
5. 42.1 µM (active)

Give one value of IC50 per listed compound.
1. COc1ccc(/C=N/NC(=O)CCc2nnc(O)nc2O)cc1O
2. O=C1COc2ccc(N3C(=O)C=CC3=O)cc2N1
3. Cc1ccsc1/C=N/c1ccc(O)cc1
4. COc1cc(/C=C2\SC(=S)N(C(C(=O)O)c3ccccc3)C2=O)ccc1O (stereo not given)
5. CCOc1cc(/C=C2/N=C(C)C(C(=O)OC)=C2O)ccc1O

Ans.
1. 28.9 µM (active)
2. > 100 µM (active)
3. 31.2 µM (active)
4. 11.6 µM (active)
5. 5.78 µM (active)

----------
# experimental-target: Histone-lysine N-methyltransferase NSD2 (Homo sapiens)
# Sequence (O96028 whole entry): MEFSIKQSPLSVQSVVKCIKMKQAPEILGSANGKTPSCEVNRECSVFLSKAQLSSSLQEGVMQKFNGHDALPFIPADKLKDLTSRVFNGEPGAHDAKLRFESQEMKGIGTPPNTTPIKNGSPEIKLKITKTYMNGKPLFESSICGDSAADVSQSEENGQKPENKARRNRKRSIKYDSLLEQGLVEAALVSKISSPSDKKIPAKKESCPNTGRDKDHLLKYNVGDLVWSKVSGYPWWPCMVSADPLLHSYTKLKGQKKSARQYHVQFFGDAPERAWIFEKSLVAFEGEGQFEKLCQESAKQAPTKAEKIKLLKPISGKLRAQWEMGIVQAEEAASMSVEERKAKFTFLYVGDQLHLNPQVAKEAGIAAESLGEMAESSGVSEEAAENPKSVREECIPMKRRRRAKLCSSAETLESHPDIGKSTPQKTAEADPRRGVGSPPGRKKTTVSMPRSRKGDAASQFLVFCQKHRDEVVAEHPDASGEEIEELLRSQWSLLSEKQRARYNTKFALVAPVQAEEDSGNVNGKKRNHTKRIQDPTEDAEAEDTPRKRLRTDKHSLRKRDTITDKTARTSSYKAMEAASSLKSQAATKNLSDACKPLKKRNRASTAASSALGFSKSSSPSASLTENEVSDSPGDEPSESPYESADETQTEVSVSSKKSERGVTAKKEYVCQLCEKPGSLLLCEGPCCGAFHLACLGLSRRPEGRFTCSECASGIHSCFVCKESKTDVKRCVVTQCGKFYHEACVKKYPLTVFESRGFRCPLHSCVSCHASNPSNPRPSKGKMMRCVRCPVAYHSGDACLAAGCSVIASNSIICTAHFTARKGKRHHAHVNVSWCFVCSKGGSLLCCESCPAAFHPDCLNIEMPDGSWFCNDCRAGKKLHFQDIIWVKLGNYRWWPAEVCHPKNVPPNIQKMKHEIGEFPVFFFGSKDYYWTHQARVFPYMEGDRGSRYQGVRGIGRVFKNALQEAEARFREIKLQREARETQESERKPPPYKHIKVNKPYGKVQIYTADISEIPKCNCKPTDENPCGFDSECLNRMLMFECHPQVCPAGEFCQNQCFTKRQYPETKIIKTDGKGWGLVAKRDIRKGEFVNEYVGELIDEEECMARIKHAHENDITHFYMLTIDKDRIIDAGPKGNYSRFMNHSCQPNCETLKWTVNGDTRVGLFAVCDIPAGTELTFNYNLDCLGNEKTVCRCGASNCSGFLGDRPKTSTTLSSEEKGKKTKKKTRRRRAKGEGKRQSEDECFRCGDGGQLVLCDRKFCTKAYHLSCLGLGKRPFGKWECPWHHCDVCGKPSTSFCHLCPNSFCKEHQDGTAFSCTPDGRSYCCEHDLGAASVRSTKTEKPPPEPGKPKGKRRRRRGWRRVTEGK
# Assay type: biochemical
Activity calls are given as the source filed them.
Please answer using one outcome listed in YES for active, NO for inactive

Qu. Tell me the assay call for CCOC(=O)c1c(C)[nH]c2c1-c1ccccc1C(=O)C2=O please.
Ans. YES

----------
# experimental-target: Replicative DNA helicase DnaB (Mycobacterium tuberculosis)
# Sequence (P9WMR3 whole entry): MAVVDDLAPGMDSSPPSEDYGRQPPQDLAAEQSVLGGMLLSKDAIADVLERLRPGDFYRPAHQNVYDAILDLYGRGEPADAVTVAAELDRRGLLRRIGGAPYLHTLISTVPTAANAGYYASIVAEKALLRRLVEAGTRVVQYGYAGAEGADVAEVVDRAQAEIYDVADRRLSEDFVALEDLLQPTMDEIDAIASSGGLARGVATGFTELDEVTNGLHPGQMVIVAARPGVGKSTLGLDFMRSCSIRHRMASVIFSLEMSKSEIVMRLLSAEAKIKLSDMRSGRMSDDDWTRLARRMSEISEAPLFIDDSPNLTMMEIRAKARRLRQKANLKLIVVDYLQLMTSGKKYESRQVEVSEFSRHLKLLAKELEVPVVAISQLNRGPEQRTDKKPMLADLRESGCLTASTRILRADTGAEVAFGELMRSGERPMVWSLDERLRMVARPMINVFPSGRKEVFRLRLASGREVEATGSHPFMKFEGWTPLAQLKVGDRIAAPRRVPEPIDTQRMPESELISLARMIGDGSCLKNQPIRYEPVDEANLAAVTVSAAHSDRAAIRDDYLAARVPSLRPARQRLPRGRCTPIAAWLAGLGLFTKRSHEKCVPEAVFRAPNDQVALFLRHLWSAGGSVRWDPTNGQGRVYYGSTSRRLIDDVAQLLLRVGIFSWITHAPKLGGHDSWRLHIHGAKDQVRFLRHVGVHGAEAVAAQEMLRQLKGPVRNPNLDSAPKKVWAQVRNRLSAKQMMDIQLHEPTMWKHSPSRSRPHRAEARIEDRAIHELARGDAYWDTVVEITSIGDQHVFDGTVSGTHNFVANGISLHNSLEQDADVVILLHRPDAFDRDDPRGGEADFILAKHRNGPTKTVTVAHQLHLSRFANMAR
# measurement-protocol: DnaB intein splicing inhibitors, dose response, biochemical, cell-free fluorescence (AID 449749)
# Type: functional
Activity calls are given as the source filed them.
Please answer using one outcome listed in yes = active, no = inactive

Some entries whose results are on file:
CCOC(=O)c1c(C)oc2c1c(/C=N/CCC(=O)O)c(O)c1ccccc12 : no
CCOc1cc(/C=C(/C#N)C(=O)Nc2ccc(O)cc2)cc(Br)c1O : no
O=C1C(Cl)=C(Nc2ccc3cn[nH]c3c2)C(=O)c2ccccc21 : yes
CCOC(=O)c1c(C)[nH]c2c1-c1ccccc1C(=O)C2=O : yes
CCOC(=O)C1=C(c2ccccc2)N=C(N)NC1c1ccc(OCc2ccc(Cl)cc2)c(OC)c1 (stereo not given) : yes
O=[N+]([O-])c1c(NCCO)cc(Sc2nc3ccccc3s2)c2nonc12 : yes
Cc1n[nH]c2c1C(c1ccc(Cl)cc1)C(C#N)=C(N)O2 (stereo not given) : yes
CCc1ccc(Nc2n[n+](-c3ccccc3)c(-c3c(Cl)cccc3Cl)s2)cc1 : yes

Qu. Tell me the assay call for CC(C)c1n[nH]c2c1C(c1cccc(OC(=O)N3CCOCC3)c1)C(C#N)=C(N)O2 (stereo not given) please.
Ans. yes

Qu. Tell me the assay call for Cc1nc(Nc2ccc(O)cc2)c2c3c(sc2n1)CCCC3 please.
Ans. no
